Below is a list of entries, each paired with its recorded pKd value.
Molecular target: T1, Human OX40R-IgG1 fusion protein (human, UniProt P43489 29-208)
T1 construct: range 1-208; Purified on protein G; also called OX40-IgG1; OX40-IgG; not shown: constant region of human IgG1 (hinge region, CH2 and CH3), amino acids 98-330 of SWISSPROT Acc; No. P01857
T1 sequence (looked up): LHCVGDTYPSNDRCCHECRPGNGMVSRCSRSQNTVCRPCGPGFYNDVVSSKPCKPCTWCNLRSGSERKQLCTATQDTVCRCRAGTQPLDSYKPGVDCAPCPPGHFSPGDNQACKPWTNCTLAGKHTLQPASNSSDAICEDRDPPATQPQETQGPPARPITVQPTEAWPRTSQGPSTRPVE
Assay: fluorescence quenching spectroscopy of OX40R-IgG1 in solution
Description: The fluorescence quenching assay was performed as previously described (Golabek A et al., 2000). OX40R-IgG₁ (35 micrograms) was dissolved in 500 microliters of PBS and the fluorescence spectum was recorded at 295-420 nanometers with an excitation wavelength of 290 nanometers using a spectrofluorimeter (Perkin Elmer LS50B) with the slits set at 5 nanometers. […]
pKd: −log10 of the molar value.
METRIC NAME: pKd

BINDER	METRIC NAME	RECORDED RESULT
IINCDGFYLISLKGYFSQEVNISLHYQKDEE (Synthetic peptide (Epytop), purity 85-97%) [Peptide P5 (amino acids 94-124 of human OX40L)]	pKd	~8.10
GYFSQEVNIS (Synthetic peptide (Epytop)) [Peptide P5-1 (amino acids 107-116 of human OX40L)]	pKd	~7.61
